tested on: 186277-243-T-J2-PDC complex spheroid viability; experiment: Anticancer human tumor 186277-243-T-J2-PDC patient-derived colon adenocarcinoma cell line growth inhibition [POLQ]; conditions: second compound 3.16 µM; first compound 3.16 µM; active compounds read low
Kindly state viability, T/C for each of the entries shown.

Find the measured viability, T/C: item CCc1cc2c(N3CCc4c(cc(Cn5ccnc5)cc4-c4cn(C)nc4C(F)(F)F)C3=O)ccnc2c(OC)n1 + Cc1cccc(N(C)C(=O)C2C(O)CCN2c2nc(C)cc(C(F)(F)F)c2C#N)c1 , target or system 186277-243-T-J2-PDC complex spheroid viability.
119%

Find the measured viability, T/C: item C=CC(=O)N1CCN(c2nc(=O)n(-c3c(C)ccnc3C(C)C)c3nc(-c4c(O)cccc4F)c(F)cc23)C(C)C1 (stereo not drawn) + Cc1cccc(N(C)C(=O)C2C(O)CCN2c2nc(C)cc(C(F)(F)F)c2C#N)c1 , target or system 186277-243-T-J2-PDC complex spheroid viability.
111%

Find the measured viability, T/C: item CNCc1ccc(-c2[nH]c3cc(F)cc4c3c2CCNC4=O)cc1 + Nc1ccc(C#CCN(C(=O)Cc2ncc(C(F)(F)F)cc2C(F)(F)F)c2ccc(F)cc2)nn1 , target or system 186277-243-T-J2-PDC complex spheroid viability.
111%

Find the measured viability, T/C: item C#Cc1c(F)ccc2cc(O)cc(-c3ncc4c(N5CC6CCC(C5)N6)nc(OCC56CCCN5CC(F)C6)nc4c3F)c12 (stereo not drawn) + Nc1ccc(C#CCN(C(=O)Cc2ncc(C(F)(F)F)cc2C(F)(F)F)c2ccc(F)cc2)nn1 , target or system 186277-243-T-J2-PDC complex spheroid viability.
12.5%

Find the measured viability, T/C: item CCc1cc2c(N3CCc4c(cc(Cn5ccnc5)cc4-c4cn(C)nc4C(F)(F)F)C3=O)ccnc2c(OC)n1 + Nc1ccc(C#CCN(C(=O)Cc2ncc(C(F)(F)F)cc2C(F)(F)F)c2ccc(F)cc2)nn1 , target or system 186277-243-T-J2-PDC complex spheroid viability.
106%

Find the measured viability, T/C: item CCc1cc2c(N3CCc4c(cc(Cn5ccnc5)cc4-c4cn(C)nc4C(F)(F)F)C3=O)cc(C)nc2c(OC)n1 + COC1C(OC(N)=O)C(O)C(Oc2ccc3c(O)c(NC(=O)c4ccc(O)c(CC=C(C)C)c4)c(=O)oc3c2C)OC1(C)C , target or system 186277-243-T-J2-PDC complex spheroid viability.
98.9%

Find the measured viability, T/C: item COc1cc2cc(C(=O)CCC(=O)O)sc2cc1OC + Nc1ccc(C#CCN(C(=O)Cc2ncc(C(F)(F)F)cc2C(F)(F)F)c2ccc(F)cc2)nn1 , target or system 186277-243-T-J2-PDC complex spheroid viability.
98.9%

Find the measured viability, T/C: item Nc1ccn(C2OC(CO)C(O)C2(F)F)c(=O)n1 (stereo not drawn) + Cc1cccc(N(C)C(=O)C2C(O)CCN2c2nc(C)cc(C(F)(F)F)c2C#N)c1 , target or system 186277-243-T-J2-PDC complex spheroid viability.
7.96%

Find the measured viability, T/C: item CCc1cc2c(N3CCc4c(cc(Cn5ccnc5)cc4-c4cn(C)nc4C(F)(F)F)C3=O)ccnc2c(OC)n1 + COC1C(OC(N)=O)C(O)C(Oc2ccc3c(O)c(NC(=O)c4ccc(O)c(CC=C(C)C)c4)c(=O)oc3c2C)OC1(C)C , target or system 186277-243-T-J2-PDC complex spheroid viability.
89.1%

Find the measured viability, T/C: item O=c1[nH]cc(F)c(=O)[nH]1 + Cc1cccc(N(C)C(=O)C2C(O)CCN2c2nc(C)cc(C(F)(F)F)c2C#N)c1 , target or system 186277-243-T-J2-PDC complex spheroid viability.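 Also: spheroids exposed to compounds for seven days; 100% = DMSO vehicle control viability.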
81.8%

Find the measured viability, T/C: item COc1ccc([C@@H](O)c2cc(-c3ncnc4cc(N5CCOCC5)ccc34)c(F)cc2Cl)nn1 + COC1C(OC(N)=O)C(O)C(Oc2ccc3c(O)c(NC(=O)c4ccc(O)c(CC=C(C)C)c4)c(=O)oc3c2C)OC1(C)C , target or system 186277-243-T-J2-PDC complex spheroid viability.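 Also: spheroids exposed to compounds for seven days; 100% = DMSO vehicle control viability.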
70%

Find the measured viability, T/C: item O=C(c1cc(Cc2n[nH]c(=O)c3ccccc23)ccc1F)N1CCN(C(=O)C2CC2)CC1 + Cc1cccc(N(C)C(=O)C2C(O)CCN2c2nc(C)cc(C(F)(F)F)c2C#N)c1 , target or system 186277-243-T-J2-PDC complex spheroid viability.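 Also: spheroids exposed to compounds for seven days; 100% = DMSO vehicle control viability.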
113%

Find the measured viability, T/C: item CCc1cc2c(N3CCc4c(cc(Cn5ccnc5)cc4-c4cn(C)nc4C(F)(F)F)C3=O)cc(C)nc2c(OC)n1 + Nc1ccc(C#CCN(C(=O)Cc2ncc(C(F)(F)F)cc2C(F)(F)F)c2ccc(F)cc2)nn1 , target or system 186277-243-T-J2-PDC complex spheroid viability.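 Also: spheroids exposed to compounds for seven days; 100% = DMSO vehicle control viability.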
109%
